Hello, the source for this data is PubChem BioAssay AID2717, in case you need it.

Assay: cancer stem cell viability inhibitors, primary screen, luminescence (AID 2717)
Conditions: cancer stem cell-like cells viability, at 7.5 µM, active compounds read high
About 3,200 (1.1%) of roughly 300,000 compounds were called active. Shown is part of a subset that was picked to be rich in actives.
READOUT LABEL: inhibition (%)
The reply should contain only the number, in %.

**Q:** What measured inhibition goes with O=C(COC(=O)CSc1ccccc1)Nc1ccc(F)cc1F ?
**A:** -0.0328

**Q:** So what does the record say about inhibition for CN(c1ccccc1)S(=O)(=O)c1ccc(C(=O)N2CCN(c3ccccc3Cl)CC2)cc1 ?
**A:** -0.098

**Q:** # input molecule: O=C(O)/C=C/c1cn(Cc2ccccc2)nc1-c1cccs1 ; wanted: its inhibition
**A:** -3.63

**Q:** Quick one: inhibition for CN(c1ccccc1)S(=O)(=O)c1cc(C(=O)N2CCN(c3ncccn3)CC2)ccc1Cl ?
**A:** 3.3

**Q:** Recorded inhibition of O=C(O)CCn1cc(/C=C/C(=O)c2ccc(Cl)cc2)c(-c2cccc(Br)c2)n1 , please.
**A:** 78.2

**Q:** Data request, read-out inhibition, for Oc1c(Cl)cc(Cl)c(Cl)c1Cc1c(O)c(Cl)cc(Cl)c1Cl
**A:** 99.3

**Q:** What measured inhibition goes with CC(Sc1ccccc1F)C(=O)Nc1cccc(S(=O)(=O)N2CCOCC2)c1 (stereo unspecified) ?
**A:** -6.48

**Q:** Entry under review: Cc1c(NC(=O)C(C)OC(=O)c2ccccc2O)c(=O)n(-c2ccccc2)n1C (stereo unspecified) . Reported inhibition?
**A:** -18.3

**Q:** # inhibition lookup, item Cc1noc(C)c1NC(=O)Nc1ccc2c(c1)C(=O)N([C@H](C)CO)C[C@H](C)[C@@H](CN(C)S(=O)(=O)c1cn(C)cn1)O2
**A:** -15.6

**Q:** Can you look up the measured inhibition of OCCNc1nc(Nc2ccc(Cl)c(Cl)c2)nc2ccccc12 for me?
**A:** 102

**Q:** Look at this molecule and give its reported inhibition. COCCn1c(C)cc(C(=O)CN2c3cccc4cccc(c34)S2(=O)=O)c1C
**A:** 12.1

**Q:** # inhibition lookup, item CC1(C)C=Cc2c(ccc3c2OC[C@@H](c2ccc(O)cc2O)C3)O1
**A:** 90

**Q:** Which value of inhibition has been reported for CCN1C(=O)/C(=C\N2CCN(c3cccc(Cl)c3)CC2)SC1=S in the records?
**A:** 100

**Q:** // inhibition lookup, key: COc1ccc(Br)cc1C(=O)NC(=S)Nc1cc(-c2nc3ccccc3[nH]2)ccc1C
**A:** 86.6

**Q:** Need inhibition of COc1ccc(C2=NN(c3nc4ccccc4s3)C(=O)C2)cc1 , thanks.
**A:** 81.2

**Q:** Requested field: inhibition. Item: C=CCC[C@@H](Cc1ccc(F)cc1)C(=O)O[C@H](CNC(=O)[C@H](CC=C)CC(=O)N(CCO)Cc1ccccc1)c1ccccc1
**A:** 41.9

**Q:** I would be grateful if you could share the reported inhibition for O=C1C=C(c2ccnc3cc(Cl)ccc23)C[C@@H](c2ccc3c(c2)OCO3)C1 .
**A:** 6.37

**Q:** For the molecule COc1cc2nc(Cl)nc(NCCO)c2cc1OC , what inhibition is on record?
**A:** -15.1

**Q:** For the molecule Cc1ccc(NC(=O)c2ccc(Cl)nc2)cc1S(=O)(=O)N1CCOCC1 , what inhibition is on record?
**A:** 33.6

**Q:** I have this molecule here, CCN1C(=O)/C(=C\N2CCOCC2)SC1=S , and I need its recorded inhibition.
**A:** -22.1

**Q:** Reported inhibition, molecule Cc1ccc(OCCC(=O)Nc2ccc(S(=O)(=O)Nc3nccs3)cc2)cc1 : ____
**A:** -5.72

###

Assay: cancer stem cell viability inhibitors, primary screen, luminescence (AID 2717)
Settings: cancer stem cell-like cells viability, at 7.5 µM, active compounds read high
Out of some 300,000 compounds screened, about 3,200 (1.1%) were called active. Many of the other results were omitted from the sample, so actives are more common in it than they were.
READOUT LABEL: inhibition (%)
Give the value, in units of %, as a plain number.

**Q:** Fill blank: measured inhibition of the compound CCN(C[C@H]1N[C@@](CC)(C(=O)OC)[C@H]2C(=O)N(C)C(=O)[C@@H]12)C(=O)Nc1ccc(F)cc1 is ____.
**A:** -20.7

**Q:** I'd like to know its inhibition. The compound in question is COc1ccc(OC)c(NC(=O)COC(=O)Cc2ccsc2)c1
**A:** -8.27

**Q:** # query: inhibition of entry CC(NC(=O)c1ccc(N2CCNCC2)c([N+](=O)[O-])c1)C12CC3CC(CC(C3)C1)C2 (configuration not stated)
**A:** 86.5

**Q:** # lookup: inhibition of O=C(O)CSc1c2c(nc3cc(C(=O)Nc4cccc(C(F)(F)F)c4)ccc13)CCCC2
**A:** 14.3

**Q:** # input compound: CC(C)NC(=O)Nc1cccc2c1O[C@H](CN(C)S(=O)(=O)c1cccs1)[C@@H](C)CN([C@H](C)CO)C2=O ; wanted: its inhibition
**A:** -18

**Q:** For O=C(O)c1ccc(NC(=O)c2ccc(COc3ccc(Cl)cc3)o2)cc1 , what is its reported inhibition?
**A:** -2.6

**Q:** Name the reported inhibition value associated with the compound CC(=O)Nc1ccc(NC(=O)COc2ncnc3ccccc23)cc1
**A:** -6.11

**Q:** # get_value(readout='inhibition', item= COc1ccc(C(=O)COC(=O)C(O)c2ccccc2)c(OC)c1 (configuration not stated) )
**A:** 3.81

**Q:** What measured inhibition goes with O=C1C=C(c2cc(C(F)(F)F)cc(C(F)(F)F)c2)C[C@@H](c2ccc3c(c2)OCO3)C1 ?
**A:** 34.8

**Q:** Find the recorded inhibition belonging to COc1ccc(C(=O)OCc2cc(=O)n3ccsc3n2)cc1F and report it.
**A:** -8.98

**Q:** # lookup: inhibition of CCn1nnc2cc(C(=O)Nc3ccc(C(=O)OC(C)C)cc3)ccc21
**A:** -0.631

**Q:** Param item = COc1cc(OC)cc(-c2c(C#Cc3ccsc3)c3cc(-c4ccc(OC)cc4F)ccc3n2C)c1 ; retrieve measured inhibition.
**A:** 0.462

**Q:** Quick check: inhibition of CC(=O)Nc1ccc(C(=O)/C=C/c2ccc[nH]2)cc1 ?
**A:** -8.94

**Q:** inhibition for O=C(NC1C2CC3CC(C2)CC1C3)c1ccc(N2CCNCC2)c([N+](=O)[O-])c1 (configuration not stated) ?
**A:** 52.3

**Q:** Fill in the blank: the reported inhibition of O=C(Nc1cccc(C(F)(F)F)c1)c1ccc(N2CCNCC2)c([N+](=O)[O-])c1 is ____.
**A:** -16.4

**Q:** If you can, please state the reported inhibition value of CCN(C(=O)CSc1cccc[n+]1[O-])c1ccccc1 .
**A:** 7

**Q:** So what does the record say about inhibition for Cc1cc(C(=O)OCC(=O)N2C(C)CCCC2C)c2ccccc2n1 (configuration not stated) ?
**A:** -3.37

**Q:** Please give the measured inhibition for this compound: CCOC(=O)CSC1=C(C#N)C(c2ccco2)C(C(=O)OCc2ccccc2)=C(C)N1 (configuration not stated)
**A:** -3.25

**Q:** # query: inhibition of entry CC1(C)C=C2[C@H]3CC[C@@H]4[C@@]5(C)CCC(=O)C(C)(C)[C@@H]5CC[C@@]4(C)[C@]3(C)CC[C@@]2(C(=O)O)CC1
**A:** 107

**Q:** Can you share its inhibition? I mean this compound: CCC(=O)/C(=C(/O)c1ccccc1)c1nc2ccccc2[nH]1
**A:** -8.67

**Q:** Query (compound): Cc1ccc(C2CC(=O)NC(SCC(=O)OCc3ccccc3)=C2C#N)o1 (configuration not stated) ; field requested: inhibition
**A:** 61.5

**Q:** Find the recorded inhibition belonging to CC(=O)Nc1ccc(C(=O)NNC(=O)CCCCC(=O)NNC(=O)c2ccc(NC(C)=O)cc2)cc1 and report it.
**A:** 0.726

**Q:** Returns the measured inhibition for the input compound. Input: Cc1ccc(Oc2nc(-c3ccccn3)nc3ccccc23)cc1
**A:** 4.28

**Q:** Can you share its inhibition? I mean this compound: COc1cccc(/C=C2\C=C(c3ccc(C)cc3)OC2=O)c1OC(C)=O
**A:** -0.631

**Q:** Item Cc1ccc(N2C(=O)C3C4C=CC(CC4)C3C2=O)cc1Br (configuration not stated) has what recorded inhibition?
**A:** 84.8

**Q:** // inhibition lookup, key: Cc1ccc(C)c(NC(=O)CN(C)C(=O)COc2ccc3ccccc3c2)c1
**A:** -11.2

**Q:** Name the recorded inhibition for CCCC(=O)Nc1ccc(C(=O)N/N=C/c2ccc[nH]2)cc1 .
**A:** 110

**Q:** Given the entry Cc1cccc(NC(=O)c2ccc(COc3ccccc3[N+](=O)[O-])o2)n1 , report its measured inhibition.
**A:** 54.5

**Q:** Record request: inhibition value, item O=C(COc1ccccc1F)NNC(=O)c1cc(Br)ccc1Cl
**A:** 7.13

**Q:** Which value of inhibition has been reported for O=C(Oc1ccc(-c2nc(-c3ccccn3)no2)cc1)c1ccccc1 in the records?
**A:** 129

**Q:** Reported inhibition, compound CCN(c1ccccc1)S(=O)(=O)c1ccc(C(=O)Nc2ccccc2OC)cc1 : ____
**A:** 16.8

**Q:** Using the record for CC1CCCCC1NC(=O)COc1ccc(C#N)cc1 (configuration not stated) , report its inhibition.
**A:** -1.85

**Q:** Reported inhibition, compound O=C(Nc1ccn(Cc2ccccc2F)n1)c1ccc(COc2ccc(Cl)cc2Cl)o1 : ____
**A:** 80.3

**Q:** // lookup inhibition for CN(CC(=O)Nc1ccc(OC(F)F)cc1)S(=O)(=O)/C=C/c1ccccc1
**A:** 7.09

**Q:** Value lookup for inhibition; key = O=C(Cc1nc2ccccc2[nH]c1=O)c1ccc(Cl)cc1
**A:** -22.9

**Q:** What value of inhibition has been reported for the following compound? Cc1cc(N2CCCC2)ccc1NC(=O)COc1ccc(Cl)cc1
**A:** -10.1

**Q:** For the compound CCOC(=O)CSC1=C(C#N)C(c2sccc2C)CC(=O)N1 (configuration not stated) , what inhibition is on record?
**A:** 78.4

**Q:** Suppose we examine the compound O=C(CCc1ccc(S(=O)(=O)N2CCOCC2)cc1)OCC(=O)c1ccc(Br)cc1 ; what inhibition value has been reported?
**A:** 7.19

**Q:** Query (compound): O=C(COC(=O)CN1C(=O)C2CCCCC2C1=O)Nc1ccc(F)c(F)c1F (configuration not stated) ; field requested: inhibition
**A:** -26.6

**Q:** What value of measured inhibition is listed for CC(OC(=O)c1c(F)cccc1F)C(=O)NCCC1=CCCCC1 (configuration not stated) ?
**A:** -17.6

**Q:** Returns the measured inhibition for the input compound. Input: CC(=O)Nc1ccc(N2C(=O)C3C4C=CC(CC4)C3C2=O)cc1 (configuration not stated)
**A:** 5.09

**Q:** Any idea what inhibition was measured for Cc1cc(C)cc(OCC(=O)OCC(=O)NC2CCCC2)c1 ?
**A:** 7.95
